# method summary: in vivo
# condition set: ICR, mouse, po, 15 mg/kg
quantity kind: half-life at 24 h (h)
The figure you give is taken to be in h; do not add the unit.

Query :: Provide half-life at 24 h value for the following compound: COc1cc(-c2n[nH]c3ncc(-c4ccc(C)c(NCCO)c4)cc23)cc(OC)c1OC
Result :: 1.2

* * *

# method summary: in vivo
# condition set: ICR, mouse, po, 15 mg/kg
quantity kind: bioavailability at 24 h (%)
The figure you give is taken to be in %; do not add the unit.

Query :: Provide bioavailability at 24 h value for the following compound: COc1cc(-c2n[nH]c3ncc(-c4ccc(C)c(NCCO)c4)cc23)cc(OC)c1OC
Result :: 3.2

* * *

# method summary: in vivo
# condition set: ICR, mouse, iv, 5 mg/kg
quantity kind: half-life at 24 h (h)
The figure you give is taken to be in h; do not add the unit.

Query :: Provide half-life at 24 h value for the following molecule: COc1cc(-c2n[nH]c3ncc(-c4ccc(C)c(NCCO)c4)cc23)cc(OC)c1OC
Result :: 1.3

* * *

# method summary: in vivo
# condition set: ICR, mouse, po, 15 mg/kg
quantity kind: AUC(0-t) at 24 h (ng·h/mL)
The figure you give is taken to be in ng·h/mL; do not add the unit.

Query :: Provide AUC(0-t) at 24 h value for the following compound: COc1cc(-c2n[nH]c3ncc(-c4ccc(C)c(NCCO)c4)cc23)cc(OC)c1OC
Result :: 110

* * *

# method summary: in vivo
# condition set: ICR, mouse, po, 15 mg/kg
quantity kind: Cmax at 24 h (ng/mL)
The figure you give is taken to be in ng/mL; do not add the unit.

Query :: Provide Cmax at 24 h value for the following compound: COc1cc(-c2n[nH]c3ncc(-c4ccc(C)c(NCCO)c4)cc23)cc(OC)c1OC
Result :: 115

* * *

# method summary: in vivo
# condition set: ICR, mouse, iv, 5 mg/kg
quantity kind: Tmax at 24 h (min)
The figure you give is taken to be in min; do not add the unit.

Query :: Provide Tmax at 24 h value for the following compound: COc1cc(-c2n[nH]c3ncc(-c4ccc(C)c(NCCO)c4)cc23)cc(OC)c1OC
Result :: 6

* * *

# method summary: in vivo
# condition set: ICR, mouse, po, 15 mg/kg
quantity kind: Tmax at 24 h (min)
The figure you give is taken to be in min; do not add the unit.

Query :: Provide Tmax at 24 h value for the following compound: COc1cc(-c2n[nH]c3ncc(-c4ccc(C)c(NCCO)c4)cc23)cc(OC)c1OC
Result :: 18

* * *

# method summary: in vivo
# condition set: ICR, mouse, iv, 5 mg/kg
quantity kind: Vd at 24 h (L/kg)
The figure you give is taken to be in L/kg; do not add the unit.

Query :: Provide Vd at 24 h value for the following compound: COc1cc(-c2n[nH]c3ncc(-c4ccc(C)c(NCCO)c4)cc23)cc(OC)c1OC
Result :: 1.3

* * *

# method summary: in vivo
# condition set: ICR, mouse, iv, 5 mg/kg
quantity kind: Cmax at 24 h (ng/mL)
The figure you give is taken to be in ng/mL; do not add the unit.

Query :: Provide Cmax at 24 h value for the following compound: COc1cc(-c2n[nH]c3ncc(-c4ccc(C)c(NCCO)c4)cc23)cc(OC)c1OC
Result :: 3850
